system: c-Src; assay: phosphorylation enrichment, bacterial display (enrichment ratio); higher = better substrate or ligand; peptides without Tyr show the background;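 further: 11-residue human phosphosite peptides and single-mutation variants displayed on the E. coli surface, counted by deep sequencing, each peptide's frequency after selection divided by its frequency in the unselected input library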;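 further: frequency after pTyr selection over input frequency; kinase dosed for 20-30% of maximal phosphorylation in three min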
Kindly return 1 if reported phosphorylation enrichment is no lower than 0.6; return -1 if it is lower.

* VSFDEYRFRSF [CFTR_Y515_V520F_YF] | -1
* IHADICRWFNI [MARS1_Y344_Y344C] | -1
* SIKDKHVTALF [KCNH2_Y611_Y611H_YF] | -1
* PADSGYPAFLG [ATP6V1A_Y374_YF] | 1
* FGYPGYQCKHY [TIMP3_Y177_S179C] | -1
* MSSLFYANTLF [HOXB7_Y6_YF] | 1
* LKDEDYLKDTV [HAUS3_Y582_I586T] | 1
* QKTGDYYDLYG [PTPN11_Y62_N58K] | 1
* EFGFRYELVQF [UGGT2_Y1289_Y1285F_YF] | -1
* TVMGLYQKSSL [MYH7_Y609_V606M] | -1
* KGEDFYCVTCP [FHL1_Y149_H154P] | 1
* RDHYGYRQSVT [CD55_Y245] | 1
* GGMTEYKLVVV [KRAS_Y4] | -1
